IC50 values, listed per item
target: CYP3A4 (Homo sapiens, UniProt P08684); construct: human liver microsomes (0.4 mg/ml); from tissue; host or cells: human liver microsomes; assay: CYP inhibition assay, human liver microsomes, CYP3A4; format: in vitro ADME; conditions: 30 min pre-incubation with NADPH, read-out: CYP 3A4 IC50 pre
Sequence (P08684 whole entry): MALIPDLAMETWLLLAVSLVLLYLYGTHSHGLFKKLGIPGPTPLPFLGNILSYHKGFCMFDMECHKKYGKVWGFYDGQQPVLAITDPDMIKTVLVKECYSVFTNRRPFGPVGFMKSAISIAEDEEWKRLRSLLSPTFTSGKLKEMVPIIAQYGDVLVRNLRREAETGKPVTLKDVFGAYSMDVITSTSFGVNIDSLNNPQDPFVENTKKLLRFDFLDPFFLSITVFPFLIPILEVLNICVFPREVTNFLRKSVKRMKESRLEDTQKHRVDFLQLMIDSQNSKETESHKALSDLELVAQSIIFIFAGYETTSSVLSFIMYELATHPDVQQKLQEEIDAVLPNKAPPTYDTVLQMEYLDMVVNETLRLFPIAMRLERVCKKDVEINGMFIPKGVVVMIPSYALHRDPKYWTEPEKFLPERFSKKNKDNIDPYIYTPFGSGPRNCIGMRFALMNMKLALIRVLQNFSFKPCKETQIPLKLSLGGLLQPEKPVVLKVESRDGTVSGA

Recorded IC50, per entry:
CCc1nc(N2C[C@H]3C(=O)N(C)C(=N)N[C@@]3(c3ccc(Cl)s3)C2)nc(OC)c1F [Example 4] = ~30 µM
CCCc1nc(N2C[C@H]3C(=O)N(C)C(=N)N[C@@]3(c3ccc(Cl)s3)C2)nc(OC)c1F [Example 10] = 11.9 µM
CCc1nc(N2C[C@H]3C(=O)N(C)C(=N)N[C@@]3(c3ccc(Cl)s3)C2)nc(C)c1F [Example 7] = > 30 µM

Let's switch to this molecule now.
Check the records and state IC50 for Cc1nc(N2C[C@H]3C(=O)N(C)C(=N)N[C@@]3(c3cc(C#N)cs3)C2)nc(C2CC2)c1F [Example 8] > 30 µM
